# Assay: yeast Mot1-301 growth rescue at high temperature, primary screen, SUMOylation pathway inhibitor project, S. cerevisiae, ATP luminescence, 38.5C (AID 2716)
# Test conditions: S. cerevisiae Mot1-301 growth rescue, at 18.8 µM
In all, about 320,000 compounds went through this assay and about 3,300 (1%) were called active.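 Rule for the calls: active = every valid replicate shows activation above 250% relative to neutral control wells; inactive = the rest, any valid replicate at or below 250%.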 The list comes from a sample in which actives are over-represented; it also holds close analogues and randomly drawn compounds.
Outcomes: t (active), f (inactive)

| Smiles input | Class assignment |
| --- | --- |
| COc1ccc(-n2c(-c3ccccc3)nc3ccccc3c2=O)cc1 | t |
| Cc1ccc(-n2c(-c3ccc([N+](=O)[O-])cc3)nc3ccccc3c2=O)cc1 | f |
| COc1ccc(N=Cc2c(O)n(C)c(=O)[nH]c2=O)cc1 | t |
| COc1ccccc1-n1c(O)c(C=NC2CC2)c(=O)[nH]c1=O | f |
| c1ccc(CCN2CCC3(CC2)OCCO3)cc1 | t |
| COc1ccc(-n2c(O)c(C(C)=Nc3ccc4c(c3)CCC4)c(=O)[nH]c2=O)cc1 | f |
| O=C(c1ccccc1[N+](=O)[O-])N1CCC2(CC1)OCCO2 | f |
| CC(=NCc1ccc2c(c1)OCO2)c1c(O)[nH]c(=O)[nH]c1=O | f |
